assay: Approximate solubility of starting material in 28 solvents at RT; format: physicochemical; details: 25 °C, organic solvent or mixture, thermodynamic from solid, solvent Dimethoxyethane, RT (25±3° C.), starting material Form A0

{"molecule": "CNC(=O)c1cc(F)c(-c2nc3cc(C)ccn3c2C[C@H]2CN(C(=O)OC)CCO2)c(F)c1 [Compound 1]", "solubility": "6.7 to 20 mg/mL"}

----------
assay: Approximate solubility of starting material in 28 solvents at RT; type: physicochemical; conditions: 25 °C, organic solvent or mixture, thermodynamic from solid, solvent CHCl3, RT (25±3° C.), starting material Form A0

{"item-smiles": "CNC(=O)c1cc(F)c(-c2nc3cc(C)ccn3c2C[C@H]2CN(C(=O)OC)CCO2)c(F)c1", "solubility": "> 40 mg/mL"}

----------
test: Approximate solubility of starting material in 28 solvents at RT; type: physicochemical; details: 25 °C, organic solvent or mixture, thermodynamic from solid, solvent 1,2-Dichloroethane, RT (25±3° C.), starting material Form A0
recorded-metric: solubility

{"item-smiles": "CNC(=O)c1cc(F)c(-c2nc3cc(C)ccn3c2C[C@H]2CN(C(=O)OC)CCO2)c(F)c1", "result": "> 38 mg/mL"}

----------
assay: Approximate solubility of starting material in 28 solvents at RT; type: physicochemical; conditions: 25 °C, organic solvent or mixture, thermodynamic from solid, solvent Toluene, RT (25±3° C.), starting material Form A0
recorded-metric: solubility

{"item-smiles": "CNC(=O)c1cc(F)c(-c2nc3cc(C)ccn3c2C[C@H]2CN(C(=O)OC)CCO2)c(F)c1", "result": "< 2000 µg/mL"}

----------
test: Approximate solubility of starting material in 28 solvents at RT; assay type: physicochemical; conditions: 25 °C, organic solvent or mixture, thermodynamic from solid, solvent ACN, RT (25±3° C.), starting material Form A0
recorded-metric: solubility

{"molecule": "CNC(=O)c1cc(F)c(-c2nc3cc(C)ccn3c2C[C@H]2CN(C(=O)OC)CCO2)c(F)c1 [Compound 1]", "recorded-metric": "solubility", "result": "20 to 40 mg/mL"}

----------
test: Approximate solubility of starting material in 28 solvents at RT; assay type: physicochemical; settings: 25 °C, organic solvent or mixture, thermodynamic from solid, solvent 1,4-Dioxane, RT (25±3° C.), starting material Form A0

{"compound": "CNC(=O)c1cc(F)c(-c2nc3cc(C)ccn3c2C[C@H]2CN(C(=O)OC)CCO2)c(F)c1 [Compound 1]", "solubility": "2400 to 8000 µg/mL"}

----------
assay: Approximate solubility of starting material in 28 solvents at RT; assay type: physicochemical; details: 25 °C, organic solvent or mixture, thermodynamic from solid, solvent THF, RT (25±3° C.), starting material Form A0
recorded-metric: solubility

{"compound": "CNC(=O)c1cc(F)c(-c2nc3cc(C)ccn3c2C[C@H]2CN(C(=O)OC)CCO2)c(F)c1 [Compound 1]", "result": "> 46 mg/mL"}

----------
test: Approximate solubility of starting material in 28 solvents at RT; assay type: physicochemical; settings: 25 °C, organic solvent or mixture, thermodynamic from solid, solvent DCM, RT (25±3° C.), starting material Form A0

{"item-smiles": "CNC(=O)c1cc(F)c(-c2nc3cc(C)ccn3c2C[C@H]2CN(C(=O)OC)CCO2)c(F)c1", "solubility": "> 40 mg/mL"}

----------
Assay: Approximate solubility of starting material in 28 solvents at RT
Format: physicochemical
Settings: 25 °C, organic solvent or mixture, thermodynamic from solid, solvent IPAc, RT (25±3° C.), starting material Form A0
Experimental: Approximate solubility of starting material (Compound 1, Form A0) was determined in 28 solvents at RT (25±3° C.). ˜2 mg of the starting material was added into each 3-mL glass vial. Solvents were then added stepwise (50/50/200/700 μL per step) into the vials until the solids were dissolved visually or a total volume of 1 mL was reached. Solubility results summarized in Table 2 were used to guide the solvent selection in screening design.

{"item-smiles": "CNC(=O)c1cc(F)c(-c2nc3cc(C)ccn3c2C[C@H]2CN(C(=O)OC)CCO2)c(F)c1", "solubility": "< 1900 µg/mL"}

----------
assay: Approximate solubility of starting material in 28 solvents at RT; type: physicochemical; details: 25 °C, organic solvent or mixture, thermodynamic from solid, solvent EtOH, RT (25±3° C.), starting material Form A0

{"compound": "CNC(=O)c1cc(F)c(-c2nc3cc(C)ccn3c2C[C@H]2CN(C(=O)OC)CCO2)c(F)c1 [Compound 1]", "solubility": "> 46 mg/mL"}

----------
assay: Approximate solubility of starting material in 28 solvents at RT; format: physicochemical; settings: 25 °C, organic solvent or mixture, thermodynamic from solid, solvent EtOAc, RT (25±3° C.), starting material Form A0
recorded-metric: solubility

{"compound": "CNC(=O)c1cc(F)c(-c2nc3cc(C)ccn3c2C[C@H]2CN(C(=O)OC)CCO2)c(F)c1 [Compound 1]", "recorded-metric": "solubility", "result": "< 2000 µg/mL"}

----------
test: Approximate solubility of starting material in 28 solvents at RT; format: physicochemical; settings: 25 °C, organic solvent or mixture, thermodynamic from solid, solvent MIBK, RT (25±3° C.), starting material Form A0
recorded-metric: solubility

{"molecule": "CNC(=O)c1cc(F)c(-c2nc3cc(C)ccn3c2C[C@H]2CN(C(=O)OC)CCO2)c(F)c1 [Compound 1]", "result": "< 2200 µg/mL"}

----------
assay: Approximate solubility of starting material in 28 solvents at RT; type: physicochemical; conditions: 25 °C, organic solvent or mixture, thermodynamic from solid, solvent 1-Propanol, RT (25±3° C.), starting material Form A0

{"item-smiles": "CNC(=O)c1cc(F)c(-c2nc3cc(C)ccn3c2C[C@H]2CN(C(=O)OC)CCO2)c(F)c1", "solubility": "> 38 mg/mL"}

The measurements presented in this section are drawn from patent US12637452B2.
